system: PyIESI-1 RRM domain (Plasmodium yoelii PY17X_0911200 aa 795-956, GST fusion); assay: RBNS R-value (6-mer enrichment in protein-bound RNA vs input library) (ratio); higher = stronger binding preference; the methods of the paper give 50 / 100 / 500 nM protein instead; conditions: protein concentration: 250 nM
Over roughly 4,100 sequences, “RBNS R-value (6-mer enrichment in protein-bound RNA vs input library)” has its median near 0.96; the highest 2% begin near 2.4. What follows is part of a selection rich in the highest values, with near analogues and random picks from the rest.
experimental_readout: RBNS R-value
# answer = number (no unit)

Quick note, RBNS R-value for UAGGAG landed at 0.934

Quick note, RBNS R-value for CAUUAA landed at 0.41

Quick note, RBNS R-value for UGUGAU landed at 3.77

Quick note, RBNS R-value for AGCCUU landed at 0.931

Quick note, RBNS R-value for AAUUAA landed at 0.471

Quick note, RBNS R-value for GAUUAA landed at 2.47

Quick note, RBNS R-value for UCCGUG landed at 1.12

Quick note, RBNS R-value for GGUGAC landed at 1.01

Quick note, RBNS R-value for AAUUUG landed at 1.6

Quick note, RBNS R-value for UGUGAG landed at 1.11

Quick note, RBNS R-value for UCCAGU landed at 0.838

Quick note, RBNS R-value for CGUACU landed at 0.773

Quick note, RBNS R-value for GAUUAG landed at 2.44

Quick note, RBNS R-value for AAUUUC landed at 1.1

Quick note, RBNS R-value for AGUGAC landed at 1.01

Quick note, RBNS R-value for CAGUGA landed at 1.6

Quick note, RBNS R-value for GGUUCG landed at 0.887

Quick note, RBNS R-value for GGUGAU landed at 2.66

Quick note, RBNS R-value for GGGCCG landed at 1

Quick note, RBNS R-value for UAUUAC landed at 0.487

Quick note, RBNS R-value for AUAAAA landed at 0.85

Quick note, RBNS R-value for GUCUGG landed at 0.813

Quick note, RBNS R-value for AAUUUU landed at 1.02

Quick note, RBNS R-value for AAAGCA landed at 0.883

Quick note, RBNS R-value for UGGGUA landed at 0.987

Quick note, RBNS R-value for AAUUAG landed at 0.641

Quick note, RBNS R-value for ACACUC landed at 1.07

Quick note, RBNS R-value for CAUUUU landed at 0.849

Quick note, RBNS R-value for CAAUCG landed at 0.873

Quick note, RBNS R-value for CGUGCU landed at 0.967

Quick note, RBNS R-value for AGUGAA landed at 0.884

Quick note, RBNS R-value for ACGCUG landed at 1.14

Quick note, RBNS R-value for CUCACG landed at 0.951

Quick note, RBNS R-value for ACUCUC landed at 0.893

Quick note, RBNS R-value for CUGCCA landed at 1.03

Quick note, RBNS R-value for GCGGGC landed at 1.09

Quick note, RBNS R-value for GAUUUA landed at 2.58

Quick note, RBNS R-value for UGUUUC landed at 0.901

Quick note, RBNS R-value for UCAUUU landed at 0.748

Quick note, RBNS R-value for GUGUUC landed at 0.821

Quick note, RBNS R-value for AUUUAC landed at 0.935

Quick note, RBNS R-value for CAUUUA landed at 0.421

Quick note, RBNS R-value for UAUUUA landed at 0.42

Quick note, RBNS R-value for AGUCCU landed at 0.811

Quick note, RBNS R-value for CGUGAG landed at 0.911

Quick note, RBNS R-value for GGGCAC landed at 1.06

Quick note, RBNS R-value for GUCAAU landed at 0.655

Quick note, RBNS R-value for GACCAG landed at 1.1

Quick note, RBNS R-value for CAUUAG landed at 0.57
